measurement-target: Histone deacetylase 1 (Homo sapiens)
Sequence (Q13547 whole entry): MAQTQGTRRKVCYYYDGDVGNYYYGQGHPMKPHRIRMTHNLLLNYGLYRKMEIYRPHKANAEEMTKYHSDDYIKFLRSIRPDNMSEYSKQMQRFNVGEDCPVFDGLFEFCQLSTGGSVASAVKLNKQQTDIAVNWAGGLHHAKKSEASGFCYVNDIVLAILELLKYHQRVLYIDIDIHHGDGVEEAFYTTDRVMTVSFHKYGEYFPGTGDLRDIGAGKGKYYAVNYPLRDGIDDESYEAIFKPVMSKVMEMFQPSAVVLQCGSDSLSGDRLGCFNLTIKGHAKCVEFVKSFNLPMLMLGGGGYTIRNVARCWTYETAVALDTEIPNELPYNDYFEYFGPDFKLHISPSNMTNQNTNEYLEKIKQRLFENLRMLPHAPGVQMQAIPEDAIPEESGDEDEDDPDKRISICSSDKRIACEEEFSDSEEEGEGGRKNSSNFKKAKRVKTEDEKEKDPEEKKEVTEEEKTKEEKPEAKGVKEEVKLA
procedure-text: Inhibition of human HDAC1 using human HeLa cell nuclear extract at 1 uM measured after 60 mins by fluorescence assay
Assay type: subcellular, Nucleus
Here the recorded IC50 is given for each entry.

{"columns": ["smiles-entry", "IC50 / µM"],
 "data": [
  ["Cc1cccc(Cc2cn(CCCCCCC(=O)NO)c3ccc(-c4c(C)noc4C)cc23)c1", 0.253],
  ["Cc1noc(C)c1-c1ccc2c(c1)c(CCc1ccccc1)cn2CCCCCCC(=O)NO", 0.24],
  ["Cc1ccccc1CCc1cn(CCCCCC(=O)NO)c2ccc(-c3c(C)noc3C)cc12", 0.314],
  ["Cc1noc(C)c1-c1ccc2c(c1)c(Cc1ccc(F)cc1)cn2CCCCCC(=O)NO", 0.341]
]}
